tested on: K-562 leukemia; experiment: NCI tumour cell line growth inhibition, 48 h
Would you mind telling me the reported TGI of each entry?

Field: example entries. Status: answers known.
O=C1c2[nH]c3ccc(Br)cc3c2CCN1Cc1ccc(Cl)cc1 ... > 100 µM
COc1ccc(N2C(=O)/C(=C/c3ccc(N(CCC#N)CCC#N)cc3C)N=C2c2cc([N+](=O)[O-])ccc2Cl)cc1 ... 36.7 µM
CC(=O)Oc1cc(Cl)c(C)c2c1[C@H]1CC[C@]3(C)[C@@H](OC(C)=O)CC[C@H]3[C@@H]1CC2 ... > 100 µM
CCCCCCCC[C@@H](O)CC(=O)N[C@@H](CC(N)=O)C(=O)N[C@@H](CCC(N)=O)C(=O)N[C@@H](CC(=O)c1cc(C)cc(O)c1C(=O)c1c(O)cccc1O)CC(C)C ... > 100 µM
C=C(C[C@](O)(C(=O)/C=C/c1ccc(Cl)cc1)C(=O)OC)c1ccccc1 ... 8.8 µM
Cc1nc(-c2cc3c(ccc4ccccc43)oc2=O)cs1 ... > 100 µM

Give TGI for each listed item.
1. O=c1c2ccccc2[nH]c2c(Cl)cc(Cl)c(NC3CCCCC3)c12
2. O=C1CN(C(=O)C2CCCN2C(=O)C2CCCN2)C(=O)CN1 (centres undefined)
3. O/N=C/c1ncccc1C1OCCO1

1. > 100 µM
2. > 100 µM
3. > 100 µM
